pKi: −log10 of the molar value.
Notes on pKi obtained with Carbonic anhydrase 9 (Homo sapiens).
Quantity Measured: pKi

In [3]: df
Out[3]:
                                   compound                          test_target  recorded_result
0  CC1(C)OCC(C2OC3OC(C)(C)OC3[C@H]2OS(N)(=O)=O)O1 (some centres undefined)  Carbonic anhydrase 9 (Homo sapiens)             7.41
1             NS(=O)(=O)Oc1c(Cl)cc(Cl)cc1Cl  Carbonic anhydrase 9 (Homo sapiens)             7.43
2  C[C@]12CC[C@@H]3c4ccc(O)cc4CC[C@H]3[C@@H]1CC[C@@H]2OS(N)(=O)=O  Carbonic anhydrase 9 (Homo sapiens)             7.49
3  C[C@]12CCC(OS(N)(=O)=O)CC1=CCC1C2CC[C@]2(C)C(=O)CCC12 (some centres undefined)  Carbonic anhydrase 9 (Homo sapiens)             7.36
4            NS(=O)(=O)Oc1ccc(-c2ccccc2)cc1  Carbonic anhydrase 9 (Homo sapiens)             7.30
5            NS(=O)(=O)Oc1ccc(Oc2ccccc2)cc1  Carbonic anhydrase 9 (Homo sapiens)             7.29
6              CC(=O)Nc1ccc(OS(N)(=O)=O)cc1  Carbonic anhydrase 9 (Homo sapiens)             7.35
7     NS(=O)(=O)Oc1ccccc1 [PHENYLSULFAMATE]  Carbonic anhydrase 9 (Homo sapiens)             7.20
8         NS(=O)(=O)Oc1ccc([N+](=O)[O-])cc1  Carbonic anhydrase 9 (Homo sapiens)             7.44

====

Notes on Ki obtained with Carbonic anhydrase 1 (Homo sapiens, UniProt P00915).
Sequence (P00915 whole entry): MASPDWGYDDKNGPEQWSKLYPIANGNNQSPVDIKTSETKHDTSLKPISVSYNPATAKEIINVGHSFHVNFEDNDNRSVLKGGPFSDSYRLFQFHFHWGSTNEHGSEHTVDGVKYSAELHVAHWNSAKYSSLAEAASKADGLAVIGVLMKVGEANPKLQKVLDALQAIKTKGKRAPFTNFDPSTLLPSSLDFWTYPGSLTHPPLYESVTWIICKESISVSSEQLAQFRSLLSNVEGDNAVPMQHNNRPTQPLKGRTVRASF
Quantity Measured: Ki (µM)

>>> df
                                    molecule  unit_of_measurement  recorded_result
 0             CC(C)(C)c1ccc(OS(N)(=O)=O)cc1                   µM            0.043
 1  C[C@]12CC[C@@H]3c4ccc(O)cc4CC[C@H]3[C@@H]1CC[C@@H]2OS(N)(=O)=O                   µM            0.015
 2            NS(=O)(=O)Oc1ccc(-c2ccccc2)cc1                   µM            0.113
 3                   COc1ccc(OS(N)(=O)=O)cc1                   µM            0.033
 4     NS(=O)(=O)Oc1c(Cl)c(Cl)c(Cl)c(Cl)c1Cl                   µM            0.432
 5     NS(=O)(=O)Oc1ccccc1 [PHENYLSULFAMATE]                   µM           0.0021
 6                   NS(=O)(=O)Oc1ccc(Cl)cc1                   µM           0.0046
 7          NS(=O)(=O)OCCOc1ccc(-n2ccnc2)cc1                   µM            0.028
 8  C[C@]12CC[C@@H]3c4ccc(OS(N)(=O)=O)cc4CC[C@H]3[C@@H]1CC[C@@H]2OS(N)(=O)=O                   µM            0.006
 9                    Cc1ccc(OS(N)(=O)=O)cc1                   µM           0.0038
10              CC(=O)Nc1ccc(OS(N)(=O)=O)cc1                   µM            0.037
11  C[C@]12CC[C@@H]3c4ccc(OS(N)(=O)=O)cc4CC[C@H]3[C@@H]1CCC2=O [EMATE]                   µM            0.037
12  C[C@]12CCC(OS(N)(=O)=O)CC1=CCC1C2CC[C@]2(C)C(=O)CCC12 (stereo partly drawn)                   µM            0.031
13         NS(=O)(=O)Oc1ccc([N+](=O)[O-])cc1                   µM             0.04
14  CC1(C)OCC(C2OC3OC(C)(C)OC3[C@H]2OS(N)(=O)=O)O1 (stereo partly drawn)                   µM            0.278
15                    NS(=O)(=O)Oc1ccc(I)cc1                   µM           0.0095
16  CC1(C)O[C@@H]2[C@H](O1)[C@H]1OC(C)(C)OC1O[C@@H]2COS(N)(=O)=O (stereo partly drawn)                   µM            0.315
17                  N#Cc1ccc(OS(N)(=O)=O)cc1                   µM             0.48
